Exercise: state measured TGI for each of the compounds provided.
# System: OVCAR-4 ovarian
# assay: NCI tumour cell line growth inhibition, 48 h
Where a SMILES comes first, the peptide text is derived from it. [ ]: non-standard residue; d: D form. The star is where a group is joined. Cbz = O=C(OCc1ccccc1)*; Aib = CC(C)(N)C(=O)O

Param item: C=CCO[C@H]1CC[C@@]2(C)C(CC[C@]3(C)C2CC=C2[C@@H]4[C@@H](C)C(C)CC[C@]4(C(=O)O)CCC23C)C1(C)C (stereo partly specified) ; param system: OVCAR-4 ovarian; output TGI: 39.3 µM

Form field TGI for item Nc1ccn(CC(O)c2cc3ccccc3[nH]2)c(=O)n1 (stereo unspecified) on OVCAR-4 ovarian: > 100 µM

Per the reported OVCAR-4 ovarian data, `CC(C)OP(=O)(OC(C)C)/C(C#N)=C/c1c[nH]c2ccccc12` has TGI of > 100 µM

Test item CC(CC(=O)Nc1ccc(NC(=O)CC(C)N=NC(N)=O)cc1)N=NC(N)=O (stereo unspecified) ; OVCAR-4 ovarian; reported TGI was > 100 µM

// assay OVCAR-4 ovarian, entry CC(C)(NC(=O)C(C)(C)NC(=O)OCc1ccccc1)C(=O)O (Cbz-[Aib]-[Aib]-OH) , TGI value = > 100 µM

Record `CCN(CCC#N)C(=O)Nc1ccccc1` has OVCAR-4 ovarian TGI equal to > 100 µM

TGI on OVCAR-4 ovarian for `COc1cc2c(=O)n(CC3CCCCC3)c3c4cc[nH]c4ncc3c2cc1OC` is 10.3 µM

The reported TGI value, OVCAR-4 ovarian, for `CNC(=O)c1cc(-c2ccc(F)cc2)cc(-c2ccc(S(=O)(=O)N3CCCC3)cc2)c1N` reads > 25 µM

// TGI (OVCAR-4 ovarian) for `CC(C)=C=CP(=O)(O)c1ccccc1` = > 100 µM

Result for `C#C[C@@H](CCCC)OC(=O)N[C@H](C)c1ccccc1` , tested on OVCAR-4 ovarian, TGI: > 100 µM

Summary: `CCOC(=O)N(O)c1ccc(/C=C/c2ccccc2)cc1` , OVCAR-4 ovarian, TGI = > 84.2 µM
